Measured values drawn from paper PMC6274398 for this set.

Examples of molecules with documented activity at 3 µM follow.
System: NO production in RAW 264.7 mouse macrophages stimulated by lipopolysaccharide (LPS)
Assay: Inhibitory assay of NO production (Griess) in LPS-stimulated RAW264.7 cells
Format: cell-based
Details: Mus musculus, RAW264.7, 24 h, read-out: Produced NO %
observed property: activity at 3 µM

molecule=CC(=O)O[C@H]1CC[C@]2(C)[C@H]3CC[C@@]4(C)[C@H]([C@H](C)CCC=C(C)C)CC[C@]4(C)C3=CC(=O)[C@H]2C1(C)C observed_measurement=93.7%
molecule=C=C(C)C(=O)CC[C@@H](C)[C@@H]1CC[C@]2(C)C3=CC[C@H]4C(C)(C)[C@@H](OC(C)=O)CC[C@]4(C)[C@H]3CC[C@@]12C observed_measurement=81.6%
molecule=CC(C)=CCC[C@@H](C)[C@@H]1CC[C@]2(C)C3=CC[C@H]4C(C)(C)C(=O)CC[C@]4(C)[C@H]3CC[C@@]12C observed_measurement=100%
molecule="CC(=O)O[C@H]1CC[C@]2(C)[C@H]3CC[C@@H]4C5=C(C(C)C)C(=O)C[C@]5(C)CC[C@@]4(C)[C@]3(C)CC[C@H]2C1(C)C [Compound 5, 21-oxolup-18-en-3β-yl acetate]" observed_measurement=106%
molecule=CO[C@H]1C[C@]2(C)CC[C@]3(C)[C@H](CC[C@@H]4[C@@]5(C)CC[C@H](OC(C)=O)C(C)(C)[C@@H]5CC[C@]43C)[C@@]23O[C@@]13C(C)C observed_measurement=101%
molecule=C=C(C)[C@@H]1CC[C@]2(CO)CC[C@]3(C)[C@H](CC[C@@H]4[C@@]5(C)CC[C@H](O)C(C)(C)[C@@H]5CC[C@]43C)[C@@H]12 observed_measurement=75%
molecule=CC(=O)O[C@H]1CC[C@]2(C)[C@H]3CC[C@@H]4[C@@]56O[C@]5(C(C)C)[C@@H](O)C[C@]6(C)CC[C@@]4(C)[C@]3(C)CC[C@H]2C1(C)C observed_measurement=76.8%
